B1: P2RY14 (parent)
chain: KLLSVIVWMLMLLLAVPNIILTNQ

variants of: B1; experiment: protein stability index of a GFP-peptide fusion (GPS, HEK-293T) (PSI 1-6); higher = more stable; conditions: c terminus: a fixed tail appended;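 note: lentivirally expressed fusions sorted by FACS into six bins by GFP to DsRed ratio, PSI derived from sequencing read proportions per bin multiplied by bin number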
Consider the following variants; for each one, report its protein stability index.
Give bare numbers.

// solved cases for protein stability index follow
# variant.annotation, protein stability index
measured = [
    ("M11K", 2.5),
    ("L21M", 2.96),
    ("V5D", 3.22),
    ("I19T", 3.06),
    ("P17I", 1.95),
]

Return reported protein stability index values for all items listed beneath this line.
1. Q24T
2. T22M
3. L10T
4. V5L
5. L3K
6. V5F
7. L13S
8. L14P

A)
1: 2.81; 2: 2.38; 3: 3.58; 4: 2.11; 5: 3.61; 6: 2.09; 7: 3.29; 8: 4.16

Return reported protein stability index values for all items listed beneath this line.
1. K1Q
2. K1R

A)
1: 4.07; 2: 2.35
